- experiment: Quantitative highthroughput screen to assess conditional lethalithy of SEM cells grown in RPMI1640 with dialyzed fetal bovine serum (RPMI+ds) (AID 1963884); further: nearly all actives have a fitted effect of over 35% in size
- condition.parameters: SEM B-ALL cells, RPMI+dialyzed FBS, CellTiter-Glo viability, 48 h; series mostly up to 45.8 µM
Results filed as inconclusive are left out. The source made the active and inactive calls. The call rests on the fitted dose curve; in most records, active means well fitted cell-killing curve with a large enough effect; inconclusive means small, poorly fitted or top-dose-only effect, or effect the other way; inactive means no such curve, though single readings can be large or run the other way.
One label from this list, please: Y = active, N = inactive

Prompt: Answer briefly: the call reported for COc1ccc(CCC(=O)Nc2nc3ccc(Cl)cc3s2)cc1OC in this assay.
Completion: N

Prompt: // repeat for CN1CC(=O)NC1=NC(=O)Nc1cccc(Cl)c1 and report
Completion: N

Prompt: Okay, and O[C@@H](COc1cccc2ncccc12)CN1CCN(C2c3ccccc3[C@@H]3[C@H](c4ccccc42)C3(F)F)CC1 (stereo partly drawn) ?
Completion: N

Prompt: Please give the result for COc1ccc(-c2nc3ccc(C4=NNC(=O)CC4C)cc3[nH]2)cc1 (stereo not drawn) too.
Completion: N

Prompt: Please give the result for C[C@H](NCc1ccc2c(c1)nc(NC(=O)c1ccc(-c3cn[nH]c3)s1)n2CCc1ccccc1)C(C)(C)C too.
Completion: Y

Prompt: Moving on to the next compound: Oc1cc2c(cc1O)C1c3ccc(O)c(O)c3OCC1(O)C2 (stereo not drawn)
Completion: N

Prompt: Now the compound COc1cccc([C@@H](C)NCCCc2ccccc2Cl)c1
Completion: N

Prompt: How about COc1ccc2cc([C@H](C)C(=O)O)ccc2c1 ?
Completion: Y

Prompt: Similarly, Cn1c(=O)c2c(ncn2CC(O)CO)n(C)c1=O (stereo not drawn) ?
Completion: N

Prompt: Moving on to the next compound: COc1cc(N2CCC(C(N)=O)CC2)ccc1Nc1nc(N)c(Cl)c(Nc2ccccc2S(=O)(=O)C(C)C)n1
Completion: Y

Prompt: Field entry: Cc1cnc(C(=O)O)c[n+]1[O-]
Completion: N

Prompt: N[C@@H]1CONC1=O , same question.
Completion: N

Prompt: Do the same for C[C@]12CCC(=O)C=C1[C@@H]1CC1[C@H]1[C@H]3[C@@H]4C[C@H]4[C@@]4(CCC(=O)O4)[C@@]3(C)CC[C@H]12 (stereo partly drawn) please
Completion: N

Prompt: Please answer likewise for C=CCNC1=C2C[C@@H](C)C[C@H](OC)[C@@H](O)[C@@H](C)C=C(C)[C@H](OC(N)=O)[C@@H](OC)C=CC=C(C)C(=O)NC(=CC1=O)C2=O
Completion: Y

Prompt: Now give it for CCC(C=C[C@@H]1OC(=O)C=C[C@H]1C)=C[C@H](C)CC=CC(C)=C[C@@H](C)C(=O)[C@@H](C)[C@H](O)[C@@H](C)CC(C)=CC(=O)O too.
Completion: Y

Prompt: Another compound to check: CCOC(=O)N1CCN([N+]([O-])=NOc2cc(ON=[N+]([O-])N3CCN(C(=O)OCC)CC3)c([N+](=O)[O-])cc2[N+](=O)[O-])CC1
Completion: N

Prompt: Moving on to the next compound: CC(C)(O)Cn1c(NC(=O)c2ccc(-c3cn[nH]c3)s2)nc2cc(CN3CCOCC3)ccc21
Completion: Y

Prompt: Try this compound too: COc1ccc(C2=N[C@H](c3ccc(Cl)cc3)[C@H](c3ccc(Cl)cc3)N2C(=O)N2CCNC(=O)C2)c(OC(C)C)c1
Completion: Y

Prompt: Do the same for CC(C)(C)c1[nH]cnc1C=c1[nH]c(=O)c(=Cc2ccccc2)[nH]c1=O please
Completion: Y

Prompt: And the next one, COc1cc(OC)c(C=CS(=O)(=O)Cc2ccc(OC)c(NCC(=O)O)c2)c(OC)c1 ?
Completion: Y

Prompt: And the next one, CN(C)Cc1c(C(=O)NCCOc2ccc(C(=O)NO)cc2)oc2ccccc12 ?
Completion: Y

Prompt: Thanks! And CNc1nc(-c2ccc3c(N)n[nH]c3c2)cc(N2C[C@@H](C(=O)NC3CCCCC3)CC[C@@H]2C)n1 ?
Completion: Y

Prompt: What would you report for O=C(Nc1ccccc1)Nc1ccc(-c2ccc(C(=O)[C@H]3CCC[C@H]3C(=O)O)cc2)cc1 ?
Completion: N

Prompt: Same question, Cc1ccccc1-n1c(Cn2nc(-c3cccc(O)c3)c3c(N)ncnc32)nc2cccc(C)c2c1=O this time
Completion: N

Prompt: Now try O=C(C=CC=Cc1ccc2c(c1)OCO2)N1CCCCC1 .
Completion: N

Prompt: Next compound: c1cncc(CN2CCC(n3ncc4c(N5CCOCC5)nc(-c5ccc6[nH]ccc6c5)nc43)CC2)c1
Completion: Y

Prompt: Now try COc1cc(O)c2c(c1)C1OC1C[C@H](O)[C@H](O)C(=O)C=CC[C@H](C)OC2=O (stereo partly drawn) .
Completion: Y

Prompt: Try the compound CS(=O)(=O)c1ccc(-c2cnc(N)c(C(=O)Nc3ccccc3)n2)cc1
Completion: Y

Prompt: What do you get for CN1CCN(CCCN2c3ccccc3Sc3ccc(C(F)(F)F)cc32)CC1 ?
Completion: N

Prompt: Now consider NC[C@H](O)c1ccc(O)c(O)c1 .
Completion: N

Prompt: And Cc1c(-c2ccnn2C)cc(C(=O)NCc2ccc(S(C)(=O)=O)cn2)c(=O)n1-c1cccc(C(F)(F)F)c1 ?
Completion: N

Prompt: Same thing, different compound: COc1ccc(-c2coc3cc(O)ccc3c2=O)cc1
Completion: N

Prompt: What do you get for Cc1ccccc1C(C(=O)NC1CCCCC1)N(C(=O)Cn1ccnc1C)c1cccc(F)c1 (stereo not drawn) ?
Completion: N

Prompt: What about CC[C@@H]1C(=O)N(C)c2cnc(Nc3ccc(C(=O)NC4CCN(C)CC4)cc3OC)nc2N1C1CCCC1 ?
Completion: Y

Prompt: # iterate: COc1ccc(S(=O)(=O)Nc2cc(-c3c(O)ccc4ccccc34)c(O)c3ccccc23)cc1
Completion: Y

Prompt: Item: Cn1cc(-c2ccc3nnc(Sc4ccc5ncccc5c4)n3n2)cn1
Completion: N

Prompt: Further, for COc1ccc(C2CNC(=O)C2)cc1OC1CCCC1 (stereo not drawn) ?
Completion: N

Prompt: Follow-up entry: Cc1[nH]c(=O)c(C#N)cc1-c1ccncc1
Completion: N
